Assay: CPHEA_Stoker_NIS_Cytotoxicity: Cytotoxicity Assessment for CPHEA's Radioactive Iodide Uptake (RAIU) Assay for Sodium/Iodide Symporter (NIS) Inhibition, Stoker and Laws Labs (AID 2283897)
The source made the active and inactive calls. How the source made its calls: active means hit-call score of the fitted dose curve at least 0.9, where 1 is the maximum; inconclusive means response in the unintended direction; inactive means score below 0.9.
EXPERIMENTAL ENDPOINT: outcome

Here's what some known entries look like.
Nc1ccccc1N	inactive
Oc1ccc2c(c1)OC[C@@H](N1CCC(O)(c3ccc(F)cc3)CC1)[C@H]2O	inactive
NC(=O)Cn1c(=O)cc(CCN2CCN(c3nccc4sccc34)CC2)c2ccc(F)cc21	inactive
FC(F)(F)C(F)(F)C(F)(F)C(F)(F)C(F)(F)C(F)(F)CCI	inactive
CCc1c(C(=O)NN2CCCCC2)nn(-c2ccc(Cl)cc2Cl)c1-c1ccc(Br)cc1	inactive

So what does the record say about outcome for Oc1ccc2ccccc2c1N=Nc1ccccc1 ?
inactive
